Tested on: SK-MEL-28 melanoma
EXPERIMENT_SUMMARY: NCI tumour cell line growth inhibition, 48 h
Recorded log10(TGI) by entry
Scale type: logarithmic (base 10). Underlying TGI unit: µM.

The examples below pair each entry with its known result.
# CHEMICAL_SMILES, ASSAY_SYSTEM, RECORDED_ENDPOINT, RESULT_VALUE
data = [
    ("COc1cc2c3c(n(CCCNCCN)c(=O)c2cc1OC)-c1cc2c(cc1C3=O)OCO2", "SK-MEL-28 melanoma", "log10(TGI)", 0.47),
    ("CC(C)c1ccc(C(=O)Nc2sc3c(c2C#N)CCC(=O)C3)cc1", "SK-MEL-28 melanoma", "log10(TGI)", 0.99),
    ("COc1cc(/C=C\\[N+](=O)[O-])ccc1OCc1ccccc1", "SK-MEL-28 melanoma", "log10(TGI)", 0.65),
]

Asked: May I ask what log10(TGI) has been recorded for `COC(=O)c1c2c(c(C)[n+]([O-])c1C)C(=O)C=C(NCc1ccc(F)c(F)c1)C2=O` ?
Given back: 0.39

Asked: Look up log10(TGI): `COc1cc(OC)c(OC)cc1/C=C\c1nccc2ccccc12`
Given back: 1.87
